systemName: T1, HLA-B*0702 (human)
T1 construct: also called B7 supertype prototype molecule
measurementDescription: inhibition of 125I standard peptide binding to purified HLA
parameterMeasured: relative binding ratio

Known relative binding ratio results, listed for orientation:
binder | testResult
SPGGLRELQL (also called Her2/neu.133) [HER2/neu peptide, position 133, 10 amino acids] | 0.058 ratio to standard peptide
MPYGCLLDHV (also called Her2/neu.801) [HER2/neu peptide, position 801, 10 amino acids] | 0.0085 ratio to standard peptide
RPRFRELVSEF (also called Her2/neu.966) [HER2/neu peptide, position 966, 11 amino acids] | 1.3 ratio to standard peptide

Hey, quick one: what's relative binding ratio for each of these?
1. PPAFSPAFDNL (also called Her2/neu.1210) [HER2/neu peptide, position 1210, 11 amino acids]
2. MPNQAQMRIL (T0001 prints N at residue 706; also called Her2/neu.706) [HER2/neu peptide, position 706, 10 amino acids]
3. SPYVSRLL (also called Her2/neu.779) [HER2/neu peptide, position 779, 8 amino acids]
4. VPLPSETDGYV (also called Her2/neu.1118) [HER2/neu peptide, position 1118, 11 amino acids]
5. PPPAFSPAF (also called Her2/neu.1209) [HER2/neu peptide, position 1209, 9 amino acids]
6. PPAFSPAF (also called Her2/neu.1210) [HER2/neu peptide, position 1210, 8 amino acids]
7. NPEYLGLDVPV (also called Her2/neu.1245) [HER2/neu peptide, position 1245, 11 amino acids]
8. VPIKWMALESI (also called Her2/neu.884) [HER2/neu peptide, position 884, 11 amino acids]

Reply text:
["-0.0002 ratio to standard peptide", "0.049 ratio to standard peptide", "0.044 ratio to standard peptide", "-0.0002 ratio to standard peptide", "0.0002 ratio to standard peptide", "-0.0002 ratio to standard peptide", "-0.0002 ratio to standard peptide", "0.0017 ratio to standard peptide"]
